These measurements were taken from patent US9938261B2.

Target: KIT (Homo sapiens, UniProt P10721)
Construct: made in house
Sequence (P10721 26-976): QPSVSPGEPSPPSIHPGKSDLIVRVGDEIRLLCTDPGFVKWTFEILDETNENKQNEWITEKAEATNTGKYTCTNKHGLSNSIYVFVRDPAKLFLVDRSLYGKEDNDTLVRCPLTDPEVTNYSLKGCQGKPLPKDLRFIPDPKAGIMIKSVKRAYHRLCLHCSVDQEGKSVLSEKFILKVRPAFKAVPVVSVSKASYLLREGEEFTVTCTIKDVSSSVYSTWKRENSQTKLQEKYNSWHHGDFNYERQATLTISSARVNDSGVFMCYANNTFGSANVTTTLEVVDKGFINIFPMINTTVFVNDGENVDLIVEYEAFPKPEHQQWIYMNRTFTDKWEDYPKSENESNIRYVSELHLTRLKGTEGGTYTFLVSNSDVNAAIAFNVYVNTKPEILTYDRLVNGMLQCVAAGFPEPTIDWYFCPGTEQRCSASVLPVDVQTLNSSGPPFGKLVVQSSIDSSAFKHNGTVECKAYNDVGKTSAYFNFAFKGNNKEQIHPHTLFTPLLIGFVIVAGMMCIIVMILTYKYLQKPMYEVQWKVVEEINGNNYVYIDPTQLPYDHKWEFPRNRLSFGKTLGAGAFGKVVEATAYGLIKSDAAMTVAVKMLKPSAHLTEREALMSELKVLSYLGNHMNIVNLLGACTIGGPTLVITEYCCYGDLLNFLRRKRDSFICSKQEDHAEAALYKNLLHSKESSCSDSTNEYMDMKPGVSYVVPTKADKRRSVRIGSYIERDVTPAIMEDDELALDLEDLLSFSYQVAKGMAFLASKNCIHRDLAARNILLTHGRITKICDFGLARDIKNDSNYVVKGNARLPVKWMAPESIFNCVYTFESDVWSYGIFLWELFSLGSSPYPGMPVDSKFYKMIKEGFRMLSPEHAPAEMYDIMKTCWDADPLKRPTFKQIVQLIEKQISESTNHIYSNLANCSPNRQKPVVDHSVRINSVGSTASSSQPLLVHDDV
Assay: Competition binding assay, KIT Kd
Conditions: competition binding
Kd for assorted compounds

Known results for compounds:
| compound | observation-type | result |
| --- | --- | --- |
| O[C@@H]1CCCC[C@H]1Nc1nc2ccc(Cn3cnc4cc(-n5ccnc5)ccc43)cc2s1 | Kd | ≤ 100 nM |
| Cc1cc2ncn(Cc3ccc4nc(N[C@@H]5CCCC[C@H]5O)sc4c3)c2cc1C | Kd | ≤ 100 nM |
| Fc1cnc2c(c1)ncn2Cc1ccc2nc(N[C@@H]3CCCC[C@@H]3Cl)sc2c1 | Kd | 100 to 500 nM |
| O[C@@H]1CCCC[C@H]1Nc1nc2ccc(Cn3cnc4cc(C5=CCOCC5)cc(F)c43)cc2s1 | Kd | ≤ 100 nM |
| O[C@@H]1CCCC[C@H]1Nc1nc2ccc(Cn3cnc4cc(Br)cc(F)c43)cc2s1 | Kd | ≤ 100 nM |
| O[C@@H]1CCCC[C@H]1Nc1nc2ccc(Cn3cnc4cc(OC(F)(F)F)ccc43)cc2s1 | Kd | 100 to 500 nM |
| O[C@@H]1[C@H](O)CCC[C@H]1Nc1nc2ccc(Cn3cnc4cc(N5CCOCC5)ccc43)cc2s1 | Kd | ≤ 100 nM |
| O[C@@H]1CCCC[C@H]1Nc1nc2ccc(Cn3cnc4cc(N5CCOCC5)ccc43)cc2s1 | Kd | 100 to 500 nM |

Endpoint output: Kd of O[C@H]1CCCCC1Nc1nc2ccc(Cn3cnc4cc(F)cnc43)cc2s1 (stereo in doubt) . Value?
≤ 100 nM

Consider the compound shown here: CC(O)c1cnc2c(c1)ncn2Cc1ccc2nc(N[C@@H]3CCCC[C@H]3O)sc2c1 (some centres unmarked) What is its recorded Kd?
500 to 2000 nM

Name the reported Kd value associated with the compound `N#Cc1ccc2c(c1)ncn2Cc1ccc2nc(N[C@@H]3CCCC[C@H]3O)oc2c1`
> 2000 nM

// query Kd value for entry `OC[C@H]1CCCC[C@H]1Nc1nc2ccc(Cn3cnc4cc(Br)cnc43)cc2s1`
≤ 100 nM

Which measured Kd value corresponds to `N#Cc1ccc2c(c1)ncn2Cc1ccc2nc(N[C@@H]3CCCC[C@H]3O)sc2c1` ?
500 to 2000 nM
